Target: Hp-FAR-2 (Heligmosomoides polygyrus)
Construct: mature Hp-FAR-2, amino acids 18–180, N-terminal 6-His-tag
Sequence (A0A183GLK6 entry or part of it): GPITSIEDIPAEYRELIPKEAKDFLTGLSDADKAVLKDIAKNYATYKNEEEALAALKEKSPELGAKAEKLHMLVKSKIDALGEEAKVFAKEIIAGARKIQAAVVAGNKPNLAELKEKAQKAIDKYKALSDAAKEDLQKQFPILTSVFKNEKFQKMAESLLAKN
Assay: fluorescence titration of DAUDA with purified Hp-FAR-2 (blue shift)
Assay type: binding
observation type: Kd (µM)
The figure you give is taken to be in µM; do not add the unit.

Exam item: Find the recorded Kd belonging to CN(C)c1cccc2c(S(=O)(=O)NCCCCCCCCCCC(=O)O)cccc12 and report it.
Marked response: 3.16
